The origin of these recorded values is paper PMC4072508.

# study target: T1, Mcl-1, Q07820
# T1 chain: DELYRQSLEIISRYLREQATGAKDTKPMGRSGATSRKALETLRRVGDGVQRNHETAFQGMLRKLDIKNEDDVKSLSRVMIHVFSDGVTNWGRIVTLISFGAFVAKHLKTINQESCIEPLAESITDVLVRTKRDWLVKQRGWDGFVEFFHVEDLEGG
# measurement notes: peptide SPOT array, c-Myc-tagged receptor at 1 uM or 100 nM, anti-c-Myc-Cy3
value kind: SPOT signal as a fraction of Bim BH3's signal on the same receptor and array
// return a plain number; no unit text

For TGSLCEIATTDSFEGDGFLWVKSGSV [CRB1] the binder record lists SPOT signal as a fraction of Bim BH3's signal on the same receptor and array as 0.04

For DDMFEPHSWNLKELSDDCFQQWGVRP [PRCP] the binder record lists SPOT signal as a fraction of Bim BH3's signal on the same receptor and array as 0.04

For DFMGRTFAKPLVKMADEAYCPPRFPP [OTOF] the binder record lists SPOT signal as a fraction of Bim BH3's signal on the same receptor and array as 0.1
